assay.target: UniProtKB Q8TDV5
Sequence (Q8TDV5 2-335 limits assumed): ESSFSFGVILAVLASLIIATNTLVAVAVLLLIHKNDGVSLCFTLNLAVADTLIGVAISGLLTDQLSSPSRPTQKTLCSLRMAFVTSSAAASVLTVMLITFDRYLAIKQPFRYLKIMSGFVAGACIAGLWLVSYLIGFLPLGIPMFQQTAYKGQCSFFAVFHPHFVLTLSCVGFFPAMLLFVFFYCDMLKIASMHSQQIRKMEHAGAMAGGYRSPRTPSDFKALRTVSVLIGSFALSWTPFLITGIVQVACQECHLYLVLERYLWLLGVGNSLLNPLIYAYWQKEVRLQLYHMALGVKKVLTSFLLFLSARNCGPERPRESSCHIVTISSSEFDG
assay.name: HTRF cAMP assay in CHO-K1 cells stably expressing the GPR119 receptor
value.kind: pEC50
// pEC50 here means minus log10 of the molar concentration (mol/L)

A selection of reference data follows.
>  <compound>
CC(C)OC(=O)N1CCC(CO[C@H]2CC[C@H](c3ccc(S(C)(=O)=O)cc3F)CC2)CC1

>  <assay.target>
UniProtKB Q8TDV5

>  <pEC50>
7.68

$$$$
>  <compound>
CC(C)(C)OC(=O)N1CCC(CO[C@H]2CC[C@H](c3ccncc3C#N)CC2)CC1

>  <assay.target>
UniProtKB Q8TDV5

>  <pEC50>
5.99

$$$$
>  <compound>
Cc1nc(S(C)(=O)=O)ccc1[C@H]1CC[C@H](OCC2CCN(c3ncc(C(F)(F)F)cn3)CC2)CC1

>  <assay.target>
UniProtKB Q8TDV5

>  <pEC50>
7.38

$$$$

In: For CC(C)(C)OC(=O)N1CCC(COC2CC=C(c3ccncc3C#N)CC2)CC1 (centres unmarked) , what is its reported pEC50?
Out: 7.42

In: Then this compound: CS(=O)(=O)c1ccc([C@H]2CC[C@H](OCC3CCN(c4ncc(C(F)(F)F)cn4)CC3)CC2)nc1
Out: 6.87

In: Then this compound: CC(C)(C)OC(=O)N1CCC(CO[C@H]2CC[C@H](c3ccc(S(C)(=O)=O)cc3F)CC2)CC1
Out: 8.19

In: Then this compound: CC(C)c1noc(N2CCC(COC3CC=C(c4ccc(S(C)(=O)=O)cc4)CC3)CC2)n1 (centres unmarked)
Out: 7.82

In: Then this compound: CC(C)(C)OC(=O)N1CCC(CO[C@H]2CC[C@H](c3ccc(S(C)(=O)=O)cc3)CC2)CC1
Out: 7.80

In: Then this compound: CS(=O)(=O)c1ccc([C@H]2CC[C@H](OCC3CCN(Cc4nc(C(F)(F)F)no4)CC3)CC2)c(F)c1
Out: 6.70

* * *

assay.target: hGPR119 (Homo sapiens, UniProt Q8TDV5)
assay.name: HTRF cAMP assay in CHO-K1 cells stably expressing the GPR119 receptor
value.kind: EC50 (nM)
Enter your answer as a number in nM; do not include the unit.

In: For CC(C)OC(=O)N1CCC(CO[C@H]2CC[C@H](c3ccc(S(C)(=O)=O)cc3)CC2)CC1 [Compound 38] , what is its reported EC50?
Out: 57

In: Then this molecule: CC(C)(C)OC(=O)N1CCC(CO[C@H]2CC[C@H](c3ccncc3F)CC2)CC1 [Compound 56]
Out: 63

In: Then this molecule: CSc1ccc([C@H]2CC[C@H](OCC3CCN(C(=O)OC(C)(C)C)CC3)CC2)cc1 [Compound 41]
Out: 505

In: Then this molecule: CC(C)(F)c1noc(N2CCC(CO[C@H]3CC[C@H](c4ccc(S(C)(=O)=O)cc4F)CC3)CC2)n1 [Compound 16]
Out: 38

In: Then this molecule: CC(C)(C)OC(=O)N1CCC(CO[C@H]2CC[C@@H](c3cnc(S(C)(=O)=O)cn3)CC2)CC1 [Compound 12]
Out: 707
